- Measurement Target: GSK3α (Homo sapiens)
Property Measured: pIC50
// scale note: pIC50 = -log10(conc_M); give the bare number

Prompt line: Consider the compound CC(C)(C)Cc1[nH]nc2c1[C@](C)(c1ccccc1)C1=C(CC(C)(C)CC1=O)N2 [BRD3731] and give its measured pIC50.
Response line: 6.68

###

- Measurement Target: GSK3α (Homo sapiens)
- Assay Notes: biochemical
Flag rule - IC50 less than 500 nM flags class 1; the remaining entries get class 0.

Prompt line: In plain terms, does CC1(C)CC(=O)C2=C(C1)Nc1n[nH]c(C3CC(F)(F)C3)c1C2(C)c1cccc(C(F)(F)F)c1 (racemic) come in under 500 nM for IC50?
Response line: class 0

Prompt line: In plain terms, does COc1ccccc1[C@H]1C2=C(CC(C)(C)CC2=O)Nc2n[nH]c(CC(C)(C)C)c21 (stereo in doubt) come in under 500 nM for IC50?
Response line: class 1

Prompt line: In plain terms, does CC1(C)CC(=O)C2=C(C1)Nc1n[nH]cc1[C@@]2(C)c1cccc(Cl)c1 (stereo in doubt) come in under 500 nM for IC50?
Response line: class 0

Prompt line: In plain terms, does `COc1cc(F)ccc1[C@@H]1C2=C(CC(C)(C)CC2=O)Nc2n[nH]c(C(C)C)c21` come in under 500 nM for IC50?
Response line: class 0

Prompt line: In plain terms, does CCCC1(c2ccccc2)C2=C(CC(C)(C)CC2=O)Nc2n[nH]cc21 (racemic) come in under 500 nM for IC50?
Response line: class 1

Prompt line: In plain terms, does CC1(C)CC(=O)C2=C(C1)Nc1n[nH]c(Cc3ccccc3)c1C2(C)c1ccccc1 (stereo not drawn) come in under 500 nM for IC50?
Response line: class 0

Prompt line: In plain terms, does CCC(C)c1[nH]nc2c1C(C)(c1ccccc1)C1=C(CC(C)(C)CC1=O)N2 (stereo not drawn) come in under 500 nM for IC50?
Response line: class 1

Prompt line: In plain terms, does CC(C)(C)Cc1[nH]nc2c1[C@]1(CCc3ccccc31)C1=C(CC(C)(C)CC1=O)N2 (stereo in doubt) come in under 500 nM for IC50?
Response line: class 0

Prompt line: In plain terms, does `Cc1ccccc1[C@H]1C2=C(CC(C)(C)CC2=O)Nc2n[nH]c(C(C)C)c21` come in under 500 nM for IC50?
Response line: class 1

Prompt line: In plain terms, does CCC(C)(C)Cc1[nH]nc2c1C(C)(c1ccccc1)C1=C(CC(C)(C)CC1=O)N2 (racemic) come in under 500 nM for IC50?
Response line: class 1

Prompt line: In plain terms, does CC(C)C1(c2ccccc2)C2=C(CC(C)(C)CC2=O)Nc2n[nH]cc21 (racemic) come in under 500 nM for IC50?
Response line: class 0

Prompt line: In plain terms, does CC1(C)CC(=O)C2=C(C1)Nc1n[nH]c(C3CCCC3)c1[C@]2(C)c1ccccc1 (stereo in doubt) come in under 500 nM for IC50?
Response line: class 0

Prompt line: In plain terms, does CC(C)(C)Cc1[nH]nc2c1[C@@](C)(c1ccc(F)cc1)C1=C(CC(C)(C)CC1=O)N2 (stereo in doubt) come in under 500 nM for IC50?
Response line: class 0

###

- Measurement Target: CDK6/CycD3 (Homo sapiens)
- Sequence (Q00534 whole entry): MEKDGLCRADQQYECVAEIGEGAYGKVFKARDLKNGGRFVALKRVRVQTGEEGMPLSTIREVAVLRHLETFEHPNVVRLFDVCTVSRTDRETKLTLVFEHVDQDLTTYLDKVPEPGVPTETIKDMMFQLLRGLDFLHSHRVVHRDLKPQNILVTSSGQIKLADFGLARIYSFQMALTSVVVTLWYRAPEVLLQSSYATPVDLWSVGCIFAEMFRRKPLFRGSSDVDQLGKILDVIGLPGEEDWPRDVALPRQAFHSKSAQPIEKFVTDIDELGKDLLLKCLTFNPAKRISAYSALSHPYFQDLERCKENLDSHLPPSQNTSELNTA
- Sequence (P30281 whole entry partner): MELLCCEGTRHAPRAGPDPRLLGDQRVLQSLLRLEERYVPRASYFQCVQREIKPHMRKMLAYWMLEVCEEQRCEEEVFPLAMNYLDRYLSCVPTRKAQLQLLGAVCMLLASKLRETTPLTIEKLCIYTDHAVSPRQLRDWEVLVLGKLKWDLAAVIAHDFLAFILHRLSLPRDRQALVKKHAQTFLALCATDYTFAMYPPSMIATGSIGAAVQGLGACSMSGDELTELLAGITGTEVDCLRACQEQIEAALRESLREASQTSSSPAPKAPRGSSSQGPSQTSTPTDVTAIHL
- Run Parameters: CDK6/CycD3
pIC50: −log10 of the molar value.
Property Measured: pIC50

Prompt line: Consider the compound `CC(C)(C)Cc1[nH]nc2c1[C@](C)(c1ccccc1)C1=C(CC(C)(C)CC1=O)N2` and give its measured pIC50.
Response line: < 5.00

###

- Measurement Target: GSK3β (Homo sapiens)
- Sequence (P49841 whole entry): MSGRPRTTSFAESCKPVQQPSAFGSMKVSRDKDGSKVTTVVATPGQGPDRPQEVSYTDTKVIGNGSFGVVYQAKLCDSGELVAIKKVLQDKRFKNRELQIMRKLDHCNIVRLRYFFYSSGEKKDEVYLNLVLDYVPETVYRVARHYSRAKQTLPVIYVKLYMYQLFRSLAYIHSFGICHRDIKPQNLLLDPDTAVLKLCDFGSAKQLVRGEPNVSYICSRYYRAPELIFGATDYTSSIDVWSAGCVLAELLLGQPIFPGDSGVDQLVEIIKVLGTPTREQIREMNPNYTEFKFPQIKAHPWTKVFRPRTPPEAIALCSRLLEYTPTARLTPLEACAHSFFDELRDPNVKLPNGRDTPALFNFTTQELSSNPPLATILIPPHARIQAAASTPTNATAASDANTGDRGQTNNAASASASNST
- Assay Notes: biochemical
Categorized via IC50: zone 1 (below 100 nM), zone 2 (100 nM to below 800 nM), zone 3 (800 nM or more)

Prompt line: Please let me know in which category the item CC[C@@]1(c2ccccc2)C2=C(CC(C)(C)CC2=O)Nc2n[nH]cc21 (stereo in doubt) belongs.
Response line: zone 2

Prompt line: Please let me know in which category the item `CC1(C)CC(=O)C2=C(C1)Nc1n[nH]c(C3CC(F)(F)C3)c1[C@]21COc2ccccc21` belongs.
Response line: zone 1

Prompt line: Please let me know in which category the item CC(C)C1(c2ccccc2)C2=C(CC(C)(C)CC2=O)Nc2n[nH]cc21 (racemic) belongs.
Response line: zone 3

Prompt line: Please let me know in which category the item CC(C)(C)Cc1[nH]nc2c1[C@@]1(CCOc3ccccc31)C1=C(CC(C)(C)CC1=O)N2 (stereo in doubt) belongs.
Response line: zone 1

Prompt line: Please let me know in which category the item CC1(C)CC(=O)C2=C(C1)Nc1n[nH]c(F)c1C2(C)c1ccccc1 (stereo not drawn) belongs.
Response line: zone 3

Prompt line: Please let me know in which category the item CC(C)(C)Cc1[nH]nc2c1[C@]1(CCOc3ccccc31)C1=C(CC(C)(C)CC1=O)N2 (stereo in doubt) belongs.
Response line: zone 2

Prompt line: Please let me know in which category the item CC(C)(C)Cc1[nH]nc2c1C(C)(c1ccc(F)cc1)C1=C(CC(C)(C)CC1=O)N2 (racemic) belongs.
Response line: zone 2

Prompt line: Please let me know in which category the item COc1ccccc1C1(C)C2=C(CC(C)(C)CC2=O)Nc2n[nH]c(C3CC(F)(F)C3)c21 (racemic) belongs.
Response line: zone 3

Prompt line: Please let me know in which category the item CC(C)(C)Cc1[nH]nc2c1[C@](C)(c1ccc(F)cc1)C1=C(CC(C)(C)CC1=O)N2 (stereo in doubt) belongs.
Response line: zone 2

Prompt line: Please let me know in which category the item COc1ccccc1C1C2=C(CC(C)(C)CC2=O)Nc2n[nH]c(CC(C)(C)C)c21 (racemic) belongs.
Response line: zone 1

Prompt line: Please let me know in which category the item COc1ccccc1C1C2=C(CC(C)(C)CC2=O)Nc2n[nH]c(C3CC(F)(F)C3)c21 (racemic) belongs.
Response line: zone 1

Prompt line: Please let me know in which category the item CCC[C@@]1(c2ccccc2)C2=C(CC(C)(C)CC2=O)Nc2n[nH]cc21 (stereo in doubt) belongs.
Response line: zone 3

###

- Measurement Target: GSK3α (Homo sapiens, UniProt P49840)
- Sequence (P49840 whole entry): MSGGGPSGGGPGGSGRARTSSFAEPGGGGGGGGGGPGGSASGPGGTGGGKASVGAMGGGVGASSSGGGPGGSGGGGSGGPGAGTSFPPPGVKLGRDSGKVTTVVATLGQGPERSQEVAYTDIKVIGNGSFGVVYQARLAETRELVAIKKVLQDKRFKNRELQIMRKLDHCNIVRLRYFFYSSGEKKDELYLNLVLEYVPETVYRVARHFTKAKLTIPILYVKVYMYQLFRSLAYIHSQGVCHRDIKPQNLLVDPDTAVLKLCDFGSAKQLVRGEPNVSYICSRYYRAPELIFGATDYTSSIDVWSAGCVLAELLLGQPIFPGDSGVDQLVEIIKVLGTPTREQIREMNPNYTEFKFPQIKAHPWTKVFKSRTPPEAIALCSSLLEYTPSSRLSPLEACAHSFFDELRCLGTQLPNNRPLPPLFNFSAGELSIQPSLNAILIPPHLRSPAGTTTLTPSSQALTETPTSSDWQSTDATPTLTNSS
- Run Parameters: Caliper assay; GSK3α over GSK3β
Provide the recorded GSK3α fold selectivity for the entries that follow.
Please report the result as a number followed by the unit.

Prompt line: Consider the molecule CC[C@@]1(c2cc(Cl)cc(Cl)c2)C2=C(CC(C)(C)CC2=O)Nc2n[nH]cc21 (stereo in doubt) and give its measured GSK3α fold selectivity.
Response line: 8.9 fold

Prompt line: Consider the molecule CCC1(c2ccccc2)C2=C(CC3(COC3)CC2=O)Nc2n[nH]cc21 (racemic) and give its measured GSK3α fold selectivity.
Response line: 6.4 fold

Prompt line: Consider the molecule CCC1(c2cccc(C(C)(C)C)c2)C2=C(CC(C)(C)CC2=O)Nc2n[nH]cc21 (racemic) and give its measured GSK3α fold selectivity.
Response line: 6.6 fold

Prompt line: Consider the molecule CC1(C)CC(=O)C2=C(C1)Nc1n[nH]cc1[C@@]2(C)c1cccc(C#N)c1 (stereo in doubt) and give its measured GSK3α fold selectivity.
Response line: 3.8 fold

Prompt line: Consider the molecule CC[C@]1(c2cc(Cl)cc(Cl)c2)C2=C(CC(C)(C)CC2=O)Nc2n[nH]cc21 (stereo in doubt) and give its measured GSK3α fold selectivity.
Response line: 6.4 fold

Prompt line: Consider the molecule CC[C@@]1(c2ccccc2)C2=C(CC(C)(C)CC2=O)Nc2n[nH]c(C3CC3)c21 (stereo in doubt) and give its measured GSK3α fold selectivity.
Response line: 1.1 fold

Prompt line: Consider the molecule CC[C@]1(c2cccc(Cl)c2)C2=C(CC(C)(C)CC2=O)Nc2n[nH]cc21 (stereo in doubt) and give its measured GSK3α fold selectivity.
Response line: 6.8 fold

Prompt line: Consider the molecule CC1(C)CC(=O)C2=C(C1)Nc1n[nH]cc1[C@]2(C)c1cccc(C(F)(F)F)c1 (stereo in doubt) and give its measured GSK3α fold selectivity.
Response line: 7.0 fold

Prompt line: Consider the molecule CC1(C)CC(=O)C2=C(C1)Nc1n[nH]cc1[C@@]2(C)c1cccc(C(F)(F)F)c1 (stereo in doubt) and give its measured GSK3α fold selectivity.
Response line: 6.4 fold

Prompt line: Consider the molecule CC[C@@]1(c2cccc(C(F)(F)F)c2)C2=C(CC(C)(C)CC2=O)Nc2n[nH]cc21 (stereo in doubt) and give its measured GSK3α fold selectivity.
Response line: 7.5 fold

Prompt line: Consider the molecule CC1(C)CC(=O)C2=C(C1)Nc1n[nH]cc1C2(C)c1cccc(F)c1 (racemic) and give its measured GSK3α fold selectivity.
Response line: 3.8 fold

Prompt line: Consider the molecule CCCC1(c2ccccc2)C2=C(CC(C)(C)CC2=O)Nc2n[nH]cc21 (racemic) and give its measured GSK3α fold selectivity.
Response line: 4.7 fold

Prompt line: Consider the molecule CC(C)[C@]1(c2ccccc2)C2=C(CC(C)(C)CC2=O)Nc2n[nH]cc21 (stereo in doubt) and give its measured GSK3α fold selectivity.
Response line: 1.6 fold

Prompt line: Consider the molecule CC(C)[C@@]1(c2ccccc2)C2=C(CC(C)(C)CC2=O)Nc2n[nH]cc21 (stereo in doubt) and give its measured GSK3α fold selectivity.
Response line: 4.4 fold

Ref: patent US20160375006A1
